Test system: Candida albicans
Test: Antifungal activity Candida albicans CMCC(F) 98001 assessed as inhibition of fungal growth incubated for 24 hrs by broth micro dilution method
Format: functional
readout.name: MIC (mg/L)

{"smiles.structure": "CCCCC[C@H]1C(=O)O[C@H](C)[C@@H](O)/C=C/C=C/C=C/C=C/C=C(\\C)[C@@H](O)C[C@H](O)C[C@H](O)C[C@H](O)C[C@H](O)C[C@H](O)C[C@@H]1O", "unit.name": "mg/L", "MIC": 3.13}
{"smiles.structure": "CCCC[C@H]1C(=O)O[C@H](C)[C@@H](O)/C=C/C=C/C=C/C=C/C=C(\\C)[C@@H](O)C[C@H](O)C[C@H](O)C[C@H](O)C[C@H](O)C[C@H](O)C[C@@H]1O", "unit.name": "mg/L", "MIC": 6.25}
{"smiles.structure": "CCCCCC[C@H]1C(=O)O[C@H](C)[C@@H](O)/C=C/C=C/C=C/C=C/C=C(\\C)[C@@H](O)C[C@H](O)C[C@H](O)C[C@H](O)C[C@H](O)C[C@H](O)C[C@@H]1O", "unit.name": "mg/L", "MIC": 1.56}
{"smiles.structure": "C\\C1=C/C=C/C=C/C=C/C=C/[C@H](O)[C@@H](C)OC(=O)[C@H](CCCC(C)C)[C@@H](O)C[C@@H](O)C[C@@H](O)C[C@@H](O)C[C@@H](O)C[C@@H](O)C[C@@H]1O", "unit.name": "mg/L", "MIC": 1.56}

a: C\C1=C/C=C/C=C/C=C/C=C/[C@H](O)[C@@H](C)OC(=O)[C@H](CCC(C)C)[C@@H](O)C[C@@H](O)C[C@@H](O)C[C@@H](O)C[C@@H](O)C[C@@H](O)C[C@@H]1O
b: CCCCC[C@@H](O)[C@H]1C(=O)O[C@H](C)[C@@H](O)/C=C/C=C/C=C/C=C/C=C(\C)[C@@H](O)C[C@H](O)C[C@H](O)C[C@H](O)C[C@H](O)C[C@H](O)C[C@@H]1O
Request: Which item exceeds the other in MIC, a or b ? State the label of the item chosen.
Response: b
(b: 12.5 mg/L, a: 3.13 mg/L)

Values were extracted from ChEMBL document CHEMBL5143582.
